Hey, just so you know, these numbers are from ChEMBL document CHEMBL4406804.

Readings of pEC50 for the listed molecules
- ASSAYED_SYSTEM: Androgen receptor (Homo sapiens)
- Sequence (P10275 whole entry): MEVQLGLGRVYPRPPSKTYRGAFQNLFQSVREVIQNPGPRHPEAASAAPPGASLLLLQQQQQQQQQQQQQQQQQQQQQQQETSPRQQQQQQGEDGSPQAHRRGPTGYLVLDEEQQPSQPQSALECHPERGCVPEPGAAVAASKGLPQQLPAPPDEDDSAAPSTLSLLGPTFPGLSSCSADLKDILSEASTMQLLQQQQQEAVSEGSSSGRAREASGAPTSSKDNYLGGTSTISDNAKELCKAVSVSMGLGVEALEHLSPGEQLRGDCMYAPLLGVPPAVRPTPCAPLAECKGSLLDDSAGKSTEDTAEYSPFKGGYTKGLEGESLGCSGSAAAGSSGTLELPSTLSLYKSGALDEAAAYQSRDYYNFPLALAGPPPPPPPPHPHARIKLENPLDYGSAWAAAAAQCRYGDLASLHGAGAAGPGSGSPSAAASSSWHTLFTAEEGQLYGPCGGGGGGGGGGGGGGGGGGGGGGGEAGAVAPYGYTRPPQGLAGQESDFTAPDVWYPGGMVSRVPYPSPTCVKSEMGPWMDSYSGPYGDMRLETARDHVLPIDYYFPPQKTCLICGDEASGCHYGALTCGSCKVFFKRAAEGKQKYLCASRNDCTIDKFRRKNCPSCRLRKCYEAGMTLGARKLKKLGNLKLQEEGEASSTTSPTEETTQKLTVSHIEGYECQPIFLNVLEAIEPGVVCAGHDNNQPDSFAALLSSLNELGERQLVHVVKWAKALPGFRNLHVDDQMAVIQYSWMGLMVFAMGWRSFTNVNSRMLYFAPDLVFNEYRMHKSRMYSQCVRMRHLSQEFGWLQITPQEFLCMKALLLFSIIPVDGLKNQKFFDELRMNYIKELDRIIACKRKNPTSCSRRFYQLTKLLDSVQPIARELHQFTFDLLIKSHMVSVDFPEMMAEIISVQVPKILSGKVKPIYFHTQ
- TEST_SUMMARY: Agonist activity at human androgen receptor in human LNCAP cells harboring firefly luciferase gene after 20 hrs by One-Glo luciferase reporter gene assay
pEC50: −log10 of the molar value.

The following molecules have reported results that may help.
CHEMICAL_STRING	OBSERVED_RESULT
CC#C[C@]1(O)CC[C@H]2[C@@H]3CCC4=CC(=O)CC[C@]4(C)[C@H]3[C@@H](c3ccc(N4CCCC4)cc3)C[C@@]21C	< 5.60
CC(C)C#C[C@]1(O)CC[C@H]2[C@@H]3CCC4=CC(=O)CC[C@]4(C)[C@H]3[C@@H](c3ccc(N(C)C)cc3)C[C@@]21C	< 5.60

// lookup pEC50 for "CC#C[C@]1(O)CC[C@H]2[C@@H]3CCC4=CC(=O)CC[C@]4(C)[C@H]3[C@@H](c3ccc(N(C)C(C)C)cc3)C[C@@]21C"
5.94

----------
- TEST_SUMMARY: Volume of distribution at steady state in dog at 0.5 mg/kg, iv
- Type: ADME, organism-based, Canis lupus familiaris
- CONDITION_LABEL: in vivo, read-out: Vdss
MEASURED_ATTRIBUTE: Vd

// lookup Vd for "CC#C[C@]1(O)CC[C@H]2[C@@H]3CCC4=CC(=O)CC[C@]4(C)[C@H]3[C@@H](c3ccc(N(C)C)cc3)C[C@@]21C"
8.32 L/kg
